B1: MFF (parent)
chain: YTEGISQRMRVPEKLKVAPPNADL

variants of: B1; experiment: protein stability index of a GFP-peptide fusion (GPS, HEK-293T) (PSI 1-6); higher = more stable; conditions: c terminus: a fixed tail appended;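 note: lentivirally expressed fusions sorted by FACS into six bins by GFP to DsRed ratio, PSI derived from sequencing read proportions per bin multiplied by bin number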
Measured metric: protein stability index
Reply with the value as a number alone.

stdin: Please report protein stability index for the following variant: `YTEMISQRMRVPEKLKVAPPNADL`
stdout: 2.52

stdin: State, in one line, measured protein stability index of `YTEGISQRMRVPKKLKVAPPNADL`
stdout: 2.2

stdin: Supply recorded protein stability index for `YTEGISQRMRVPEKRKVAPPNADL` here.
stdout: 2.58

stdin: Supply measured protein stability index of `YTTGISQRMRVPEKLKVAPPNADL` in your reply.
stdout: 2.56

stdin: Please give the documented protein stability index of `YTEGISQRMRVPEKLKVAPPNADN`
stdout: 3.08

stdin: Item `YTEGISQRMRVKEKLKVAPPNADL` : provide protein stability index
stdout: 2.57

stdin: State its protein stability index: `YTEGISQRMRVPEKLKVAHPNADL`
stdout: 2.54

stdin: Look up and report measured protein stability index for this entry: `YTEGISQRMRFPEKLKVAPPNADL`
stdout: 2.7

stdin: Fill in protein stability index for record `YTEGISIRMRVPEKLKVAPPNADL`
stdout: 2.85

stdin: State its protein stability index for this variant: `YTEGISQRPRVPEKLKVAPPNADL`
stdout: 3.27

stdin: Output protein stability index of `YTEGISQFMRVPEKLKVAPPNADL`
stdout: 1.95
